# Activity values compiled below
- tested on: Voltage-gated L-type calcium channel (Rattus norvegicus, UniProt P22002+Q02485+P27732)
- assay procedure: Inhibition of voltage-dependent L-type calcium channel in Wistar rat brain slices assessed as protection against oxygen glucose deprivation/reperfusion-induced injury by measuring recovery of edema formation at 20 uM administered at onset of reperfusion period measured after 90 mins relative to control
- Parameters: scale not given: the % may be the effect or the level left
- settings: 1.5 h

For orientation, consider the following solved cases.
>  <substance smiles>
COC(=O)C1=C(C)NC(C)=C(C(=O)OC)C1c1c(-c2cc(OC)ccc2OC)nc2sccn12

>  <measured parameter>
Activity

>  <result>
77.6%

$$$$
>  <substance smiles>
CCOC(=O)C1=C(C)NC(C)=C(C(=O)OCC)C1c1c(-c2ccc(F)cc2)nc2sc(Cl)cn12

>  <measured parameter>
Activity

>  <result>
< 5%

$$$$
>  <substance smiles>
CCOC(=O)C1=C(C)NC(C)=C(C(=O)OCC)C1c1c(-c2ccc(F)cc2)nc2sccn12

>  <measured parameter>
Activity

>  <result>
89.4%

$$$$

Kindly note: Voltage-gated L-type calcium channel (Rattus norvegicus, UniProt P22002+Q02485+P27732), CCOC(=O)C1=C(C)NC(C)=C(C(=O)OCC)C1c1c(-c2ccc([N+](=O)[O-])cc2)nc2sc(F)cn12 , Activity value reported: 76.4%

Entry COC(=O)C1=C(C)NC(C)=C(C(=O)OC)C1c1c(-c2ccccc2)nc2scc(C)n12 , tested on Voltage-gated L-type calcium channel (Rattus norvegicus, UniProt P22002+Q02485+P27732), has a reported Activity of 82.5%

Measured Activity for this entry COC(=O)C1=C(C)NC(C)=C(C(=O)OC)C1c1c(-c2cc(OC)ccc2OC)nc2sc(Cl)cn12 on Voltage-gated L-type calcium channel (Rattus norvegicus, UniProt P22002+Q02485+P27732): 91.8%

The compound CCOC(=O)C1=C(C)NC(C)=C(C(=O)OCC)C1c1c(-c2cc(OC)cc(OC)c2)nc2sc(Br)cn12 on Voltage-gated L-type calcium channel (Rattus norvegicus, UniProt P22002+Q02485+P27732): Activity was < 5%

// compound CCOC(=O)C1=C(C)NC(C)=C(C(=O)OCC)C1c1c(-c2ccc(Br)c([N+](=O)[O-])c2)nc2sccn12 , assay Voltage-gated L-type calcium channel (Rattus norvegicus, UniProt P22002+Q02485+P27732), Activity value: < 5%

Case CCOC(=O)C1=C(C)NC(C)=C(C(=O)OCC)C1c1c(-c2ccc(Cl)c([N+](=O)[O-])c2)nc2sc(C)cn12 , Voltage-gated L-type calcium channel (Rattus norvegicus, UniProt P22002+Q02485+P27732), Activity recorded as < 5%

Observed Activity on Voltage-gated L-type calcium channel (Rattus norvegicus, UniProt P22002+Q02485+P27732), entry CCOC(=O)C1=C(C)NC(C)=C(C(=O)OCC)C1c1c(-c2cc(OC)ccc2OC)nc2sc(Br)cn12 , equals < 5%

Entry CCOC(=O)C1=C(C)NC(C)=C(C(=O)OCC)C1c1c(-c2cc(OC)ccc2OC)nc2sccn12 under Voltage-gated L-type calcium channel (Rattus norvegicus, UniProt P22002+Q02485+P27732) had Activity of 75.8%

Entry COC(=O)C1=C(C)NC(C)=C(C(=O)OC)C1c1c(C(F)(F)F)nc2sc(C)cn12 ; assay system Voltage-gated L-type calcium channel (Rattus norvegicus, UniProt P22002+Q02485+P27732); Activity recorded at 63.7%

The reported Activity value, Voltage-gated L-type calcium channel (Rattus norvegicus, UniProt P22002+Q02485+P27732), for CCOC(=O)C1=C(C)NC(C)=C(C(=O)OCC)C1c1c(-c2ccc(OC)c(OC)c2)nc2sc(Br)cn12 reads 89.1%

====

Property: EC50; scope: individual molecules
- Test system: Left cardiac atrium
- assay procedure: Negative inotropic activity in guinea pig left atrium assessed as decrease in developed tension at 0.001 to 100 uM relative to control
- Type: ADME, tissue-based
- settings: Cavia porcellus
# value in nM; strip the unit string

Worked cases, answers included:
>  <substance smiles>
CCOC(=O)C1=C(C)NC(C)=C(C(=O)OCC)C1c1c(-c2ccc(OC(F)(F)F)cc2)nc2sc(Br)cn12

>  <EC50, nM>
93

$$$$
>  <substance smiles>
C=CCOC(=O)C1=C(C)NC(C)=C(C(=O)OCC=C)C1c1c(-c2cc(OC)c([N+](=O)[O-])cc2OC)nc2sccn12

>  <EC50, nM>
25

$$$$
>  <substance smiles>
CCOC(=O)C1=C(C)NC(C)=C(C(=O)OCC)C1c1c(-c2cc(F)c(F)cc2F)nc2sccn12

>  <EC50, nM>
160

$$$$

Here is another molecule to look at.
// sample CCOC(=O)C1=C(C)NC(C)=C(C(=O)OCC)C1c1c(-c2ccc(F)c(F)c2)nc2sccn12 , its EC50 was 21

====

- tested on: Voltage-gated L-type calcium channel (Homo sapiens, UniProt Q13936+Q13698+Q01668+O60840)
- assay procedure: Inhibition of voltage-dependent L-type calcium channel in human U373MG cells assessed as protection against oxygen glucose deprivation/reperfusion-induced injury by measuring recovery of cell viability at 1 uM administered at onset of reperfusion period measured after 16 hrs by alamar blue assay relative to control
- Type: cell-based
measured parameter: Activity

>  <substance smiles>
CCOC(=O)C1=C(C)NC(C)=C(C(=O)OCC)C1c1c(-c2ccc([N+](=O)[O-])cc2)nc2sc(Cl)cn12

>  <Activity>
10.3%

$$$$

Record COC(=O)C1=C(C)NC(C)=C(C(=O)OC)C1c1c(-c2cccc(OC)c2)nc2sccn12 has Voltage-gated L-type calcium channel (Homo sapiens, UniProt Q13936+Q13698+Q01668+O60840) Activity equal to < 5%

GET /values?item= COC(=O)C1=C(C)NC(C)=C(C(=O)OC)C1c1c(-c2ccccc2OC)nc2sccn12 &system= Voltage-gated L-type calcium channel (Homo sapiens, UniProt Q13936+Q13698+Q01668+O60840) returns Activity: < 5%

====

- tested on: Voltage-gated L-type calcium channel (Homo sapiens, UniProt Q13936+Q13698+Q01668+O60840)
- assay procedure: Inhibition of voltage-dependent L-type calcium channel in human SH-SY5Y cells assessed as protection against glutamate-induced excitotoxicity by measuring recovery of cell viability at 20 uM measured after 24 hrs by alamar blue-based fluorescence method relative to control
measured parameter: Activity (%)
Please reply with the bare figure in % and do not write the unit itself.

Examples with answers:
>  <substance smiles>
CCOC(=O)C1=C(C)NC(C)=C(C(=O)OCC)C1c1c(-c2ccc(F)cc2)nc2sc(Cl)cn12

>  <tested on>
Voltage-gated L-type calcium channel (Homo sapiens, UniProt Q13936+Q13698+Q01668+O60840)

>  <result>
47.5

$$$$
>  <substance smiles>
CCOC(=O)C1=C(C)NC(C)=C(C(=O)OCC)C1c1c(-c2ccccc2F)nc2sccn12

>  <tested on>
Voltage-gated L-type calcium channel (Homo sapiens, UniProt Q13936+Q13698+Q01668+O60840)

>  <result>
62.2

$$$$
>  <substance smiles>
COC(=O)C1=C(C)NC(C)=C(C(=O)OC)C1c1c(-c2cc(OC)ccc2OC)nc2sc(Cl)cn12

>  <tested on>
Voltage-gated L-type calcium channel (Homo sapiens, UniProt Q13936+Q13698+Q01668+O60840)

>  <result>
108.4

$$$$
>  <substance smiles>
COC(=O)C1=C(C)NC(C)=C(C(=O)OC)C1c1c(-c2ccc(C(F)(F)F)cc2)nc2sccn12

>  <tested on>
Voltage-gated L-type calcium channel (Homo sapiens, UniProt Q13936+Q13698+Q01668+O60840)

>  <result>
36.6

$$$$
>  <substance smiles>
CCOC(=O)C1=C(C)NC(C)=C(C(=O)OCC)C1c1c(-c2ccc(OC)c(OC)c2)nc2sc(Br)cn12

>  <tested on>
Voltage-gated L-type calcium channel (Homo sapiens, UniProt Q13936+Q13698+Q01668+O60840)

>  <result>
33.4

$$$$

Now, please, on to the next compound.
Query CCOC(=O)C1=C(C)NC(C)=C(C(=O)OCC)C1c1c(-c2ccc(Cl)cc2)nc2sccn12 yields Activity of 44.4

====

- Test system: Right cardiac atrium
- assay procedure: Negative chronotropic activity in guinea pig spontaneously beating right atrium assessed as decrease in atrial rate
- Assay type: tissue-based
- settings: Cavia porcellus
Known pEC50 of a selection of molecules
pEC50 field: float, defined as -log10 of concentration (mol/L).

// solved cases for pEC50 follow
>  <substance smiles>
COC(=O)C1=C(C)NC(C)=C(C(=O)OC)C1c1ccccc1[N+](=O)[O-]

>  <pEC50>
7.41

$$$$
>  <substance smiles>
CCOC(=O)C1=C(C)NC(C)=C(C(=O)OCC)C1c1c(-c2cc(F)c(F)cc2F)nc2sccn12

>  <pEC50>
5.91

$$$$
>  <substance smiles>
CCOC(=O)C1=C(C)NC(C)=C(C(=O)OCC)C1c1c(-c2ccc(F)c(F)c2)nc2sccn12

>  <pEC50>
7.00

$$$$
>  <substance smiles>
C=CCOC(=O)C1=C(C)NC(C)=C(C(=O)OCC=C)C1c1c(-c2cc(OC)c([N+](=O)[O-])cc2OC)nc2sccn12

>  <pEC50>
5.62

$$$$
>  <substance smiles>
CCOC(=O)C1=C(C)NC(C)=C(C(=O)OCC)C1c1c(-c2cc(OC)ccc2OC)nc2sc(Br)cn12

>  <pEC50>
6.92

$$$$
>  <substance smiles>
CCOC(=O)C1=C(C)NC(C)=C(C(=O)OCC)C1c1c(-c2ccc(F)cc2)nc2sc(C)cn12

>  <pEC50>
7.64

$$$$
>  <substance smiles>
CCOC(=O)C1=C(C)NC(C)=C(C(=O)OCC)C1c1c(-c2cc(OC)ccc2OC)nc2sc(C)cn12

>  <pEC50>
5.32

$$$$

Reported pEC50 ( CCOC(=O)C1=C(C)NC(C)=C(C(=O)OCC)C1c1c(-c2ccc(F)cc2)nc2sccn12 ) = 5.78

Entry source: ChEMBL document CHEMBL4385592
